test: Phase I single ascending dose study in humans, pharmacokinetics; type: in vivo, human; conditions: human, plasma; single oral 300 mg capsule, healthy humans, mean; read-out: Vz/F
Counter-ions that a name gives are not always drawn.
REPORTED PROPERTY: Vd/F (L)
Answers are plain numbers, in L.

(Q) Would you kindly share the measured Vd/F for COc1ccc(CC(=O)O)cc1Oc1ccc(NC(=O)C(C)(C)C)cc1CSC(C)(C)C [Compound 2, sodium salt] ?
(A) 351

====

target: CYP2D6 (Homo sapiens (Human)); assay: Extracellular cytochrome P450 inhibition (microsomes); settings: 2D6, dextromethorphan O-demethylation
Sequence (P10635 whole entry): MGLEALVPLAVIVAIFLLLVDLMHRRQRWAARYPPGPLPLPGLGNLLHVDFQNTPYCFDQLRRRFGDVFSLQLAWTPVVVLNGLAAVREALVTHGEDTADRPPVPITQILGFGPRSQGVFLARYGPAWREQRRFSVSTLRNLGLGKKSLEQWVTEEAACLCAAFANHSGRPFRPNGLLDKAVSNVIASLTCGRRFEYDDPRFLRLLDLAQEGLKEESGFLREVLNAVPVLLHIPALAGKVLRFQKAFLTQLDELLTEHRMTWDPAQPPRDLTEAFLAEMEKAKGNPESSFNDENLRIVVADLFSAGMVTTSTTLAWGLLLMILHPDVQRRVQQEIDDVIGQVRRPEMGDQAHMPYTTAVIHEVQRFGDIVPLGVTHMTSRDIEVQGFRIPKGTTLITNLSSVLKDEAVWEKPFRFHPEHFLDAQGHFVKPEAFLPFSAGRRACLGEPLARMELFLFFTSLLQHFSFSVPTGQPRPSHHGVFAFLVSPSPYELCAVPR
pIC50: −log10 of the molar value. Counter-ions that a name gives are not always drawn.
REPORTED PROPERTY: pIC50

(Q) Would you kindly share the measured pIC50 for COc1ccc(CC(=O)O)cc1Oc1ccc(NC(=O)C(C)(C)C)cc1CSC(C)(C)C [Compound 2, sodium salt] ?
(A) < 4.30
